Target: Nav 1.7 (Homo sapiens (Human))
Sequence (Q15858 whole entry): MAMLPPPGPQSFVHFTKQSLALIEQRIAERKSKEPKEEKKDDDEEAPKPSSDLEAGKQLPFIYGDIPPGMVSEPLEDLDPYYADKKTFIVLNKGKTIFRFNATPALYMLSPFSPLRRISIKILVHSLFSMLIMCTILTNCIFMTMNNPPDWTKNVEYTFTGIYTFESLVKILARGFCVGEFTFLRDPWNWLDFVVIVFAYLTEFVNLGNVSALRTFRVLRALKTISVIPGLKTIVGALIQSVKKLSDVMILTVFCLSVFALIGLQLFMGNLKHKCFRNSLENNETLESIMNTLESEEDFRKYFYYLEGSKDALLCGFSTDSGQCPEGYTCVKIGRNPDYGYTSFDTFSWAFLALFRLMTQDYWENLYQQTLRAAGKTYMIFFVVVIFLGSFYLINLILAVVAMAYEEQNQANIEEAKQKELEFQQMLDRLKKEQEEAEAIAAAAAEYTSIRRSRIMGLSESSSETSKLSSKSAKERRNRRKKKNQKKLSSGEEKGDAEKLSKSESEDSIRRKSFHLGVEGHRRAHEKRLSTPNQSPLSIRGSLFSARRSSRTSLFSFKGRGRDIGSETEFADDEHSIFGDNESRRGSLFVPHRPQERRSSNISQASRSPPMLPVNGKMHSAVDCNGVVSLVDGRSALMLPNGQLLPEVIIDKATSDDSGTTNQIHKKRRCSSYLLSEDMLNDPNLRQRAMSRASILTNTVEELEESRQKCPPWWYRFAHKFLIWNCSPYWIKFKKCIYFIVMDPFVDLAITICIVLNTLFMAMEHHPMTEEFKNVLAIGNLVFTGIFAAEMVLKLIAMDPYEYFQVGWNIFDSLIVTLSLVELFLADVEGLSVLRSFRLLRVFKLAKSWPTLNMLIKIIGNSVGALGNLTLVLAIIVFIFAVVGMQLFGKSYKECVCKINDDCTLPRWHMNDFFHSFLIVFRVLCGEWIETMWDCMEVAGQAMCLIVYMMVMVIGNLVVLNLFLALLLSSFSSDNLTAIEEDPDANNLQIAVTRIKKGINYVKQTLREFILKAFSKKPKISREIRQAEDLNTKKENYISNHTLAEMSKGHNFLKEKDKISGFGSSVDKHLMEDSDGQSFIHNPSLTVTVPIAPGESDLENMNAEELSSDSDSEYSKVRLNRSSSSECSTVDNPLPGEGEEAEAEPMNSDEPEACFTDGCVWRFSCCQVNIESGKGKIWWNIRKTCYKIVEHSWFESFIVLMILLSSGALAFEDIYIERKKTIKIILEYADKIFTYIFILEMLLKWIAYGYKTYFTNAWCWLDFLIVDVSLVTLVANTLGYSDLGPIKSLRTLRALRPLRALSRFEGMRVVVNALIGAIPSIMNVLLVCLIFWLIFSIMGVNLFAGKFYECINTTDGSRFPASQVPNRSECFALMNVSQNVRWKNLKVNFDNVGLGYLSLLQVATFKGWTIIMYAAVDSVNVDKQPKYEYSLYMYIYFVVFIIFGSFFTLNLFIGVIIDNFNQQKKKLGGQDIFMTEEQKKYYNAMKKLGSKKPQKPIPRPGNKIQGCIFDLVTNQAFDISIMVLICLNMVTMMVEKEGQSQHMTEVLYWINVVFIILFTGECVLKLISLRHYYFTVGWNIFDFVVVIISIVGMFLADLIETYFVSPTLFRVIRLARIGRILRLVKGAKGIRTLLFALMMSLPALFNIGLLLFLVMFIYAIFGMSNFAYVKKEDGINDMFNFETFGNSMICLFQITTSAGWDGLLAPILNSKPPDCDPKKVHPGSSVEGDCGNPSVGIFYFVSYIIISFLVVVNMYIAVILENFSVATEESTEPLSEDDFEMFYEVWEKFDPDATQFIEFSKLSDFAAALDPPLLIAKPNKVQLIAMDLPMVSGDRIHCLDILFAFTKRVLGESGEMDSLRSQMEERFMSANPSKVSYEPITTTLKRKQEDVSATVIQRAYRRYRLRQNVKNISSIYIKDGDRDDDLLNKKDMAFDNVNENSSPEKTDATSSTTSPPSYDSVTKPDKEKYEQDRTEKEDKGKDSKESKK
Experiment: Nav 1.7 in vitro PX assay, PatchXpress whole cell voltage clamp
Assay type: cell-based
Conditions: HEK 293 cells stably transfected with human Nav1.7; partially inactivated state (20 to 50% inactivation)
readout name: IC50 (µM)

As a guide, the following entries are already answered.
> print(dat)
                                   molecule  measured.value
1  O=S(=O)(Nc1nccs1)c1ccc2c(c1)OCCN2c1cccc2c1OC(F)(F)O2 [Example 129]             2.9
2  CC(C)c1ccc(N2CCOc3cc(S(=O)(=O)Nc4nccs4)ccc32)cc1 [Example 112]            12.2
3  N#Cc1cc(Cl)ccc1N1CCOc2cc(S(=O)(=O)Nc3nccs3)ccc21 [Example 56]           0.265
4  O=S(=O)(Nc1ncns1)c1ccc2c(c1)OCCN2c1ccc(C(F)(F)F)cc1Br [Example 1]          0.0589
5  N#Cc1cc(C(F)(F)F)ccc1N1CCOc2cc(S(=O)(=O)Nc3ccno3)ccc21 [Example 91]            9.21

P: O=S(=O)(Nc1cscn1)c1ccc2c(c1)OCCN2c1ccc(C(F)(F)F)cc1Cl [Example 11]
Q: COc1cc(C#N)ccc1N1C[C@H](C)Oc2cc(S(=O)(=O)Nc3nccs3)ccc21 (single isomer, unassigned) [Example 107]
Task item: Which item exceeds the other in IC50, P or Q ? Pick one; state its label.
Reply: P
(P: 12.6 µM, Q: 0.309 µM)

The measured values listed here are drawn from patent US9346798B2.
